The measured values listed here are drawn from PubChem BioAssay (NCI).

# Test system: UACC-62 melanoma
# protocol-text: NCI tumour cell line growth inhibition, 48 h
parameter: TGI (µM)

[
  {
    "compound": "Cc1ccc(S(=O)(=O)NC(=O)OC23COCN2COC3)cc1",
    "unit-symbol": "µM",
    "limit-sign": ">",
    "measured-number": 100
  },
  {
    "compound": "N#CC1C(N)=NNC12Nc1ccccc1S2 (stereo not given)",
    "unit-symbol": "µM",
    "limit-sign": "=",
    "measured-number": 30.3
  },
  {
    "compound": "C=C(CCC=C(C)C)C1CC=C(C)CC1 (stereo not given)",
    "unit-symbol": "µM",
    "limit-sign": ">",
    "measured-number": 100
  },
  {
    "compound": "Clc1nc(Cl)c2ncn(CCOCCn3cnc4c(Cl)nc(Cl)nc43)c2n1",
    "unit-symbol": "µM",
    "limit-sign": "=",
    "measured-number": 0.412
  },
  {
    "compound": "CN(C)CCCn1c2c(c3cc4c(cc3c1=O)OCO4)C(=O)c1ccccc1-2",
    "unit-symbol": "µM",
    "limit-sign": "=",
    "measured-number": 9.57
  },
  {
    "compound": "Nc1nc2c(ncn2CCCC(c2ccccc2)P(=O)(O)O)c(=O)[nH]1 (stereo not given)",
    "unit-symbol": "µM",
    "limit-sign": ">",
    "measured-number": 100
  },
  {
    "compound": "COCCOCOC(C)(C)[C@H](CCO)O[Si](c1ccccc1)(c1ccccc1)C(C)(C)C",
    "unit-symbol": "µM",
    "limit-sign": "=",
    "measured-number": 28.3
  },
  {
    "compound": "O=C(Nc1nc2ncn(CCO)c2c(=O)[nH]1)c1ccccc1",
    "unit-symbol": "µM",
    "limit-sign": ">",
    "measured-number": 100
  },
  {
    "compound": "COc1ccc(/C=C/c2cc(OC)c(OCc3ccccc3)c(OC)c2)cc1",
    "unit-symbol": "µM",
    "limit-sign": ">",
    "measured-number": 100
  },
  {
    "compound": "COc1cc(/C=C/C(=O)O[C@H]2[C@H](O[C@@H]3O[C@@H](C)[C@H](O)[C@@H](O)[C@H]3O)[C@@H](O)[C@H](OCCc3ccc(O)c(O)c3)O[C@@H]2COC2OCC(O)(CO)C2O)ccc1O (stereo not given in full)",
    "unit-symbol": "µM",
    "limit-sign": ">",
    "measured-number": 100
  }
]
